Cited source for all entries: paper PMC8431481

method: in vitro
protocol-conditions: African green monkey
Where a SMILES comes first, the peptide text is derived from it.
I'd appreciate it if you marked entries Yes when CC50 is lower than 80 µM and No when it is not.

See these solved cases before continuing.
[[record]]
molecule = "CCC(CC)COC(=O)[C@H](C)N[P@](=O)(OC[C@H]1O[C@@](C#N)(c2ccc3c(N)ncnn23)[C@H](O)[C@@H]1O)Oc1ccccc1 [Remdesivir, reference compound]"
assigned_class = "Yes"

[[record]]
molecule = "CNC(=O)[C@@H](NC(=O)[C@H](CC(C)C)NC(=O)[C@@H](NC(=O)CNC(C)=O)C(C)C)C(C)C [Peptide 6, Ac-GVLV-NHCH3] (Ac-GVLV-NHMe)"
assigned_class = "Yes"

[[record]]
molecule = "CC(C)C[C@H](NC(=O)[C@@H](NC(=O)CNC(=O)CN)C(C)C)C(=O)N[C@H](C(=O)N[C@@H](CCC(N)=O)C(=O)N1CCC[C@H]1C(=O)NCC(=O)O)C(C)C [AT1001 (1), Larazotide acetate, reference compound] (H-GGVLVQPG-OH)"
assigned_class = "No"

[[record]]
molecule = "CC(=O)NCC(=O)NCC(=O)N[C@H](C(=O)N[C@@H](CC(C)C)C(=O)N[C@H](C(=O)N[C@@H](CCC(N)=O)C(=O)N1CCC[C@H]1C(=O)NCC(N)=O)C(C)C)C(C)C [Peptide 2] (Ac-GGVLVQPG-NH2)"
assigned_class = "No"


Now for a further molecule.
Exam item: Does CNC(=O)[C@H](CCC(N)=O)NC(=O)[C@@H](NC(=O)[C@H](CC(C)C)NC(=O)[C@@H](NC(=O)CNC(C)=O)C(C)C)C(C)C [Peptide 5, Ac-GVLVQ-NHCH3] (Ac-GVLVQ-NHMe) have CC50 strictly under 80 µM?
Marked response: Yes

----------
Can you tell me Cytotoxicity Cell Morphology (MCC) for the items I'm about to list?
System: human embryonic lung (HEL) fibroblasts
method: Cytotoxicity, cell morphology (MCC) in HEL cells
protocol-conditions: Table 3 (VZV tests)
Where a SMILES comes first, the peptide text is derived from it. The star is where a group is joined. Piv = CC(C)(C)C(=O)*

Consider the worked cases shown below.
[[record]]
molecule = "CNC(=O)[C@@H](NC(=O)[C@H](CC(C)C)NC(=O)[C@@H](NC(=O)CNC(C)=O)C(C)C)C(C)C [Peptide 6, Ac-GVLV-NHCH3] (Ac-GVLV-NHMe)"
assay_target = "human embryonic lung (HEL) fibroblasts"
observed = "100 µM"

[[record]]
molecule = "O=c1[nH]c(=O)n([C@H]2C[C@H](O)[C@@H](CO)O2)cc1/C=C/Br [Birivudine, reference compound]"
assay_target = "human embryonic lung (HEL) fibroblasts"
observed = ">300.3 µM"

[[record]]
molecule = "CC(=O)NCC(=O)NCC(=O)N[C@H](C(=O)N[C@@H](CC(C)C)C(=O)N[C@H](C(=O)N[C@@H](CCC(N)=O)C(=O)N1CCC[C@H]1C(=O)NCC(N)=O)C(C)C)C(C)C [Peptide 2] (Ac-GGVLVQPG-NH2)"
assay_target = "human embryonic lung (HEL) fibroblasts"
observed = ">100 µM"


Count: 4. Required value per item: Cytotoxicity Cell Morphology (MCC).
1. CC(C)C[C@H](NC(=O)[C@@H](NC(=O)CNC(=O)CN)C(C)C)C(=O)N[C@H](C(=O)N[C@@H](CCC(N)=O)C(=O)N1CCC[C@H]1C(=O)NCC(=O)O)C(C)C [AT1001 (1), Larazotide acetate, reference compound] (H-GGVLVQPG-OH)
2. CNC(=O)CNC(=O)[C@@H]1CCCN1C(=O)[C@H](CCC(N)=O)NC(=O)[C@@H](NC(=O)[C@H](CC(C)C)NC(=O)[C@@H](NC(=O)CNC(=O)CNC(C)=O)C(C)C)C(C)C [Peptide 3] (Ac-GGVLVQPG-NHMe)
3. CNC(=O)CNC(=O)[C@@H]1CCCN1C(=O)[C@H](CCC(N)=O)NC(=O)[C@@H](NC(=O)[C@H](CC(C)C)NC(=O)[C@@H](NC(=O)CNC(=O)CNC(=O)C(C)(C)C)C(C)C)C(C)C [Peptide 4] (Piv-GGVLVQPG-NHMe)
4. CNC(=O)[C@H](CCC(N)=O)NC(=O)[C@@H](NC(=O)[C@H](CC(C)C)NC(=O)[C@@H](NC(=O)CNC(C)=O)C(C)C)C(C)C [Peptide 5, Ac-GVLVQ-NHCH3] (Ac-GVLVQ-NHMe)

Marked response:
1: ≥100 µM; 2: >100 µM; 3: ≥100 µM; 4: >100 µM

----------
System: SARS-CoV-2 clinical strain UC-1075
method: microbe, parasite or virus in culture
protocol-conditions: Severe acute respiratory syndrome coronavirus 2, UC1075, Vero, 120 h, read-out: Antiviral Activity (EC50) UC-1075
measured-property: EC50 (µM)
Give bare numbers, in µM.

Exam item: Which measured EC50 value corresponds to CCC(CC)COC(=O)[C@H](C)N[P@](=O)(OC[C@H]1O[C@@](C#N)(c2ccc3c(N)ncnn23)[C@H](O)[C@@H]1O)Oc1ccccc1 [Remdesivir, reference compound] ?
Marked response: 1.06

----------
method: in vitro
protocol-conditions: African green monkey
Where a SMILES comes first, the peptide text is derived from it. The star is where a group is joined. Piv = CC(C)(C)C(=O)*
measured-property: CC50 (µM)
Answers are plain numbers, in µM.

Provide CC50 values for the following items, in order.
1. CNC(=O)CNC(=O)[C@@H]1CCCN1C(=O)[C@H](CCC(N)=O)NC(=O)[C@@H](NC(=O)[C@H](CC(C)C)NC(=O)[C@@H](NC(=O)CNC(=O)CNC(C)=O)C(C)C)C(C)C [Peptide 3] (Ac-GGVLVQPG-NHMe)
2. CNC(=O)CNC(=O)[C@@H]1CCCN1C(=O)[C@H](CCC(N)=O)NC(=O)[C@@H](NC(=O)[C@H](CC(C)C)NC(=O)[C@@H](NC(=O)CNC(=O)CNC(=O)C(C)(C)C)C(C)C)C(C)C [Peptide 4] (Piv-GGVLVQPG-NHMe)

Marked response:
[81.8, 74.9]

----------
Give measured Inhibition for each item. Keep answers brief.
assay-target: recombinant SARS-CoV-2 M^pro (Severe acute respiratory syndrome coronavirus 2, UniProt P0DTD1)
Construct: The virus enzyme, called 3CLpro or main protease (M^pro), is essential for viral replication; purchased Proteros
Assay type: biochemical
protocol-conditions: relative to concentration range 0.1–1 µM
Where a SMILES comes first, the peptide text is derived from it.
Answers are plain numbers, in %.

[[record]]
molecule = "CC(C)C[C@H](NC(=O)[C@@H](NC(=O)CNC(=O)CN)C(C)C)C(=O)N[C@H](C(=O)N[C@@H](CCC(N)=O)C(=O)N1CCC[C@H]1C(=O)NCC(=O)O)C(C)C [AT1001 (1), Larazotide acetate, reference compound] (H-GGVLVQPG-OH)"
measured_property = "Inhibition"
observed = 27.7

[[record]]
molecule = "CNC(=O)[C@H](CCC(N)=O)NC(=O)[C@@H](NC(=O)[C@H](CC(C)C)NC(=O)[C@@H](NC(=O)CNC(C)=O)C(C)C)C(C)C [Peptide 5, Ac-GVLVQ-NHCH3] (Ac-GVLVQ-NHMe)"
measured_property = "Inhibition"
observed = 27.0

[[record]]
molecule = "CNC(=O)[C@@H](NC(=O)[C@H](CC(C)C)NC(=O)[C@@H](NC(=O)CNC(C)=O)C(C)C)C(C)C [Peptide 6, Ac-GVLV-NHCH3] (Ac-GVLV-NHMe)"
measured_property = "Inhibition"
observed = 25.0


Exam item: Fill in the blank: the reported Inhibition of CNC(=O)CNC(=O)[C@@H]1CCCN1C(=O)[C@H](CCC(N)=O)NC(=O)[C@@H](NC(=O)[C@H](CC(C)C)NC(=O)[C@@H](NC(=O)CNC(=O)CNC(C)=O)C(C)C)C(C)C [Peptide 3] (Ac-GGVLVQPG-NHMe) is ____.
Marked response: 27.4
